# protocolDescription: chemical genetic growth profiling, strain panel (AID 1159580);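 note: tested at 20 µM; growth read once vehicle control cultures reached saturation at 30 °C; 1 = growth at the plate median or of vehicle wells; lower values mean less growth of the strain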
# testConditions: S. cerevisiae deletion strains, growth OD, locus YNL298W, strain CLA4 (second series), active compounds read low
Screen size: about 5,500 compounds; about 2,000 (36%) were called active. About 18% were inconclusive and are not listed. The list shows a part of the results.
valueKind: normalized growth

Recorded normalized growth, per entry:
>>> recordedmeasurement("c1ccc(-c2csc(-c3cccnc3)n2)cc1")
"0.74 (active)"
>>> recordedmeasurement("Cc1cc(Cl)ccc1Oc1ccc(N)cn1")
"0.891 (inactive)"
>>> recordedmeasurement("O=S(=O)(NCC1CC1)c1ccc(F)c(Cl)c1")
"1.03 (inactive)"
>>> recordedmeasurement("O=S(=O)(c1ccc(Cl)cc1)c1cc(C(F)(F)F)cc(C(F)(F)F)c1")
"1.03 (inactive)"
>>> recordedmeasurement("O=S(=O)(NCCc1ccncc1)c1cc(C(F)(F)F)cc(C(F)(F)F)c1")
"0.986 (inactive)"

// for each compound in input: emit normalized growth
1. CCOC(=O)C(=CNNS(=O)(=O)c1cc(C(F)(F)F)cc(C(F)(F)F)c1)C(=O)OCC
2. Cn1c(=S)[nH]c2cc(C(F)(F)F)ccc21
3. FC(F)(F)c1cc(Cl)c2nsnc2c1
4. O/N=C(/CNC(c1ccccc1)(c1ccccc1)c1ccccc1)c1ccccc1

1. 1 (inactive)
2. 0.803 (active)
3. 0.993 (inactive)
4. 1 (inactive)

Could you report normalized growth for every entry in the following list?
1. FC(F)(F)c1ccc2[nH]c(=S)[nH]c2c1
2. O=S(=O)(NCc1ccc(F)cc1F)c1cccc(C(F)(F)F)c1
3. COc1cscc1C(N)=O

1. 0.979 (inactive)
2. 0.968 (inactive)
3. 0.969 (inactive)
